Here, each record is paired with measured MIC data.
System: Staphylococcus aureus
MEASUREMENT PROTOCOL: Antimicrobial activity against drug-susceptible Staphylococcus aureus 2 after 20 hrs by agar dilution method
Format: functional
COND: Staphylococcus aureus, 20 h; read-out: MIC
Expressed in mg/L, but write only the number.

- MOLECULE: "CCOC(=O)[C@H]1[C@H](C)O[C@@H](O[C@H]2[C@H](N(C)C)[C@@H](O)[C@H](O[C@H]3[C@@H](CC=O)C[C@@H](C)[C@@H](O)CN(C)CC(CCCc4ccnc5ccccc45)CCOC(=O)C[C@@H](OC(=O)CC)[C@@H]3OC)O[C@@H]2C)C[C@@]1(C)O (stereo in doubt; form 1)"
  TESTED SYSTEM: "Staphylococcus aureus"
  REPORTED METRIC: "MIC"
  MEASURED: 0.5

Turning now to a further record.
Would you mind telling me what MIC value was observed for CCOC(=O)[C@H]1[C@H](C)O[C@@H](O[C@H]2[C@H](N(C)C)[C@@H](O)[C@H](O[C@H]3[C@@H](CC=O)C[C@@H](C)[C@@H](O)CN(CCCc4ccnc5ccccc45)CCCNC(=O)C[C@@H](OC(=O)CC)[C@@H]3OC)O[C@@H]2C)C[C@@]1(C)O ?
1

----------
Test system: Haemophilus influenzae
MEASUREMENT PROTOCOL: Antimicrobial activity against drug-susceptible Haemophilus influenzae 4 after 20 hrs by agar dilution method
Assay type: functional
COND: Haemophilus influenzae, 20 h; read-out: MIC
REPORTED METRIC: MIC (mg/L)
Could you give me the number in mg/L? Just the number is fine.

Study these solved cases before continuing.
- COMPOUND: "CCOC(=O)[C@H]1[C@H](C)O[C@@H](O[C@H]2[C@H](N(C)C)[C@@H](O)[C@H](O[C@H]3[C@@H](CC=O)C[C@@H](C)[C@@H](O)CN(C)CC(/C=C\\Cc4cnc5ccccc5c4)CCOC(=O)C[C@@H](OC(=O)CC)[C@@H]3OC)O[C@@H]2C)C[C@@]1(C)O (stereo partly drawn)"
  TESTED SYSTEM: "Haemophilus influenzae"
  REPORTED METRIC: "MIC"
  MEASURED: 16
- COMPOUND: "CCOC(=O)[C@H]1[C@H](C)O[C@@H](O[C@H]2[C@H](N(C)C)[C@@H](O)[C@H](O[C@H]3[C@@H](CC=O)C[C@@H](C)[C@@H](O)CN(C)CCC(/C=C/Cc4ccnc5ccccc45)NC(=O)C[C@@H](OC(=O)CC)[C@@H]3OC)O[C@@H]2C)C[C@@]1(C)O (mixture of isomers)"
  TESTED SYSTEM: "Haemophilus influenzae"
  REPORTED METRIC: "MIC"
  MEASURED: 8

Moving on to the next compound.
What value of MIC has been recorded for this entry: CCOC(=O)[C@H]1[C@H](C)O[C@@H](O[C@H]2[C@H](N(C)C)[C@@H](O)[C@H](O[C@H]3[C@@H](CC=O)C[C@@H](C)[C@@H](O)CN(C)CCC(C/C=C/c4cnc5ccccc5c4)NC(=O)C[C@@H](OC(=O)CC)[C@@H]3OC)O[C@@H]2C)C[C@@]1(C)O (stereo in doubt; form 1)
16

----------
Test system: Haemophilus influenzae
MEASUREMENT PROTOCOL: Antimicrobial activity against drug-susceptible Haemophilus influenzae 4 after 20 hrs by agar dilution method
Type: functional
COND: Haemophilus influenzae, 20 h; read-out: MIC
REPORTED METRIC: MIC (µg/mL)

For orientation, consider the following solved cases.
- MOLECULE: "CCOC(=O)[C@H]1[C@H](C)O[C@@H](O[C@H]2[C@H](N(C)C)[C@@H](O)[C@H](O[C@H]3[C@@H](CC=O)C[C@@H](C)[C@@H](O)CN(C)CC(CCCc4ccnc5ccccc45)CCOC(=O)C[C@@H](OC(=O)CC)[C@@H]3OC)O[C@@H]2C)C[C@@]1(C)O (stereo in doubt; form 1)"
  MIC, µg/mL: 8
- MOLECULE: "CCOC(=O)[C@H]1[C@H](C)O[C@@H](O[C@H]2[C@H](N(C)C)[C@@H](O)[C@H](O[C@H]3[C@@H](CC=O)C[C@@H](C)[C@@H](O)CN(C)CCC[C@H](C/C=C/c4ccc5ncccc5c4)OC(=O)C[C@@H](OC(=O)CC)[C@@H]3OC)O[C@@H]2C)C[C@@]1(C)O"
  MIC, µg/mL: 8
- MOLECULE: "CCOC(=O)[C@H]1[C@H](C)O[C@@H](O[C@H]2[C@H](N(C)C)[C@@H](O)[C@H](O[C@H]3[C@@H](CC=O)C[C@@H](C)[C@@H](O)CN(CCCc4ccnc5ccccc45)CCCNC(=O)C[C@@H](OC(=O)CC)[C@@H]3OC)O[C@@H]2C)C[C@@]1(C)O"
  MIC, µg/mL: 8
- MOLECULE: "CCOC(=O)[C@H]1[C@H](C)O[C@@H](O[C@H]2[C@H](N(C)C)[C@@H](O)[C@H](O[C@H]3[C@@H](CC=O)C[C@@H](C)[C@@H](O)CN(C)CCC(CCCc4ccnc5ccccc45)NC(=O)C[C@@H](OC(=O)CC)[C@@H]3OC)O[C@@H]2C)C[C@@]1(C)O (stereo in doubt; form 1)"
  MIC, µg/mL: 8

a. CCOC(=O)[C@H]1[C@H](C)O[C@@H](O[C@H]2[C@H](N(C)C)[C@@H](O)[C@H](O[C@H]3[C@@H](CC=O)C[C@@H](C)[C@@H](OC(C)=O)CN(CCCCc4ccccc4)CCCOC(=O)C[C@@H](OC(=O)CC)[C@@H]3OC)O[C@@H]2C)C[C@@]1(C)OC(C)=O
b. CCOC(=O)[C@H]1[C@H](C)O[C@@H](O[C@H]2[C@H](N(C)C)[C@@H](O)[C@H](O[C@H]3[C@@H](CC=O)C[C@@H](C)[C@@H](O)CN(C)CCC[C@@H](C/C=C/c4ccnc5ccccc45)OC(=O)C[C@@H](OC(=O)CC)[C@@H]3OC)O[C@@H]2C)C[C@@]1(C)O
Could you point out whether the larger MIC belongs to a or to b ? Refer to your chosen entry by its label in the reply.
b
(b: 16 µg/mL, a: 8 µg/mL)

----------
Test system: Streptococcus pneumoniae
MEASUREMENT PROTOCOL: Antimicrobial activity against drug-susceptible Streptococcus pneumoniae 3 after 20 hrs by agar dilution method
Type: functional
Reported values of MIC for individual entries
Report only the number, with the unit µg/mL understood.

Look over these answered cases.
- MOLECULE: "CCOC(=O)[C@H]1[C@H](C)O[C@@H](O[C@H]2[C@H](N(C)C)[C@@H](O)[C@H](O[C@H]3[C@@H](CC=O)C[C@@H](C)[C@@H](O)CN(C)CCC(C/C=C/c4cnc5ccccc5c4)NC(=O)C[C@@H](OC(=O)CC)[C@@H]3OC)O[C@@H]2C)C[C@@]1(C)O (stereo in doubt; form 2)"
  MIC (µg/mL): 0.25
- MOLECULE: "CCOC(=O)[C@H]1[C@H](C)O[C@@H](O[C@H]2[C@H](N(C)C)[C@@H](O)[C@H](O[C@H]3[C@@H](CC=O)C[C@@H](C)[C@@H](O)CN(C)CCC(CCCc4ccnc5ccccc45)NC(=O)C[C@@H](OC(=O)CC)[C@@H]3OC)O[C@@H]2C)C[C@@]1(C)O (stereo in doubt; form 2)"
  MIC (µg/mL): 0.25

Provide the documented MIC with Streptococcus pneumoniae as the system for CCOC(=O)[C@H]1[C@H](C)O[C@@H](O[C@H]2[C@H](N(C)C)[C@@H](O)[C@H](O[C@H]3[C@@H](CC=O)C[C@@H](C)[C@@H](O)CN(C)CC(/C=C\Cc4ccnc5ccccc45)CCOC(=O)C[C@@H](OC(=O)CC)[C@@H]3OC)O[C@@H]2C)C[C@@]1(C)O (stereo in doubt; form 2)
0.5

And for CCOC(=O)[C@H]1[C@H](C)O[C@@H](O[C@H]2[C@H](N(C)C)[C@@H](O)[C@H](O[C@H]3[C@@H](CC=O)C[C@@H](C)[C@@H](O)CN(C)CC(CCCc4ccnc5ccccc45)CCOC(=O)C[C@@H](OC(=O)CC)[C@@H]3OC)O[C@@H]2C)C[C@@]1(C)O (stereo in doubt; form 2) ?
0.03

Also, CCOC(=O)[C@H]1[C@H](C)O[C@@H](O[C@H]2[C@H](N(C)C)[C@@H](O)[C@H](O[C@H]3[C@@H](CC=O)C[C@@H](C)[C@@H](O)CN(C)CCC(/C=C/Cc4ccnc5ccccc45)NC(=O)C[C@@H](OC(=O)CC)[C@@H]3OC)O[C@@H]2C)C[C@@]1(C)O (mixture of isomers) please.
0.06

----------
System: Staphylococcus aureus
MEASUREMENT PROTOCOL: Antimicrobial activity against drug-susceptible Staphylococcus aureus 2 after 20 hrs by agar dilution method
Assay type: functional
COND: Staphylococcus aureus, 20 h; read-out: MIC
REPORTED METRIC: MIC (µg/mL)
Quick reminder: number only, in µg/mL, skip the unit.

Form field: MIC recorded for CCOC(=O)[C@H]1[C@H](C)O[C@@H](O[C@H]2[C@H](N(C)C)[C@@H](O)[C@H](O[C@H]3[C@@H](CC=O)C[C@@H](C)[C@@H](O)CN(C)CC(/C=C/Cc4ccc5ncccc5c4)CCOC(=O)C[C@@H](OC(=O)CC)[C@@H]3OC)O[C@@H]2C)C[C@@]1(C)O (some centres not stated) with Staphylococcus aureus (enter value)
0.25
